# credit: patent US20220073617A1

koff overview
# ASSAYED SYSTEM: T1, monovalent hVISTA-ECD (human VISTA extracellular domain with His tail) (human, UniProt Q9H7M9 33-193)
# T1 construct: analyte flowed over captured antibody; also called huVISTA-His
# T1 sequence (Q9H7M9 other isoform, or with tags, fused parts or gaps limits assumed): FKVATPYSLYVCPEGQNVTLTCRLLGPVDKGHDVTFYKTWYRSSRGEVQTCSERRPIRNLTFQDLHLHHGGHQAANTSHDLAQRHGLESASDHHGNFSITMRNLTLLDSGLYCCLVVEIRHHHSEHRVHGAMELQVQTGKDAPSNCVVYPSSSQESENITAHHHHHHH
# PROTOCOL DETAILS: SPR, pH 6.0
Express it in s⁻¹; write the number only.

Example binders with recorded koff:
P1-065316 (41F11_VH_A60H VK A64G) (antibody, V domains shown, Kabat positions; also called P1-065316-1) VH: QVQLVESGGGLVKPGGSLRLSCAASGFTFSDYYMSWIRQAPGKGLEWVSYISNSGSPIYYHDSVKGRFTISRDNAKNSLYLQMNSLRAEDTAVYYCARDLPGWYFDLWGRGTLVTVSS VL: EIVLTQSPATLSLSPGERATLSCRASQSVSSYLAWYQQKPGQAPRLLIYDASNRATGIPARFSGSGSGTDFTLTISSLEPEDFAVYYCQQRNNWPRTFGQGTKVEIK | 0.0561
P1-064478 (41F11_VH_Y50E) (antibody, V domains shown, Kabat positions; also called P1-064478-1) VH: QVQLVESGGGLVKPGGSLRLSCAASGFTFSDYYMSWIRQAPGKGLEWVSEISNSGSPIYYADSVKGRFTISRDNAKNSLYLQMNSLRAEDTAVYYCARDLPGWYFDLWGRGTLVTVSS VL: EIVLTQSPATLSLSPGERATLSCRASQSVSSYLAWYQQKPGQAPRLLIYDASNRATGIPARFSASGSGTDFTLTISSLEPEDFAVYYCQQRNNWPRTFGQGTKVEIK | 0.0121

The binder P1-064480 (41F11_VH_A60H) (antibody, V domains shown, Kabat positions; also called P1-064480-1) VH: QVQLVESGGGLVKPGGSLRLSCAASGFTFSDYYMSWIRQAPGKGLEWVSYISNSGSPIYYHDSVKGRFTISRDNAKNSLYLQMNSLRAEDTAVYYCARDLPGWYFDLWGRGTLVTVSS VL: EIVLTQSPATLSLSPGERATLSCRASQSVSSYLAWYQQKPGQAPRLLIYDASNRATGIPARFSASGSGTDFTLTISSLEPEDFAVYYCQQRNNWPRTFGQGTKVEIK showed koff equal to 0.0329
